test system: DU-145; assay: NCI tumour cell line growth inhibition, 48 h
Active and inactive are the calls of the source. Rule as the data show it: active = GI50 up to about 1.1 µM and inactive = higher.
Valid outcomes are listed here; reply with one: active, inactive

Solved entries (count: 2):
COC(=O)c1ccccc1CC1Cc2c(C)ccc(C)c2C1=O (stereo not drawn) :: inactive
CC1=NN(c2nc(N)nc(/C(C#N)=C\c3ccc([N+](=O)[O-])s3)n2)C(C)(C)C1 :: active

Moving on to another molecule below.
Ask: Look up the recorded call for COC(=O)[C@]12CCC(C)(C)C[C@H]1[C@H]1C(=O)C=C3[C@@]4(C)C=C(C#N)C(=O)C(C)(C)[C@@H]4CC[C@@]3(C)[C@]1(C)CC2 in this test.
Reply: active

* * *

test system: U-251; experiment: NCI tumour cell line growth inhibition, 48 h
Activity calls are given as the source filed them. Rule as the data show it: active = GI50 up to about 1.1 µM and inactive = higher.
Give one outcome, nothing more. List: y = active, n = inactive

Observe how each entry below is paired with its result.
Nc1cccc2nnccc12 :: n
O=C(c1ccccc1)C(C(=O)c1ccccc1)c1nc2ccccc2sc1=O :: n

Ask: Could you please tell me the result logged for CCOC(=O)c1nc2ccc(C(F)(F)F)cc2nc1Oc1ccc(OC)cc1 in this assay?
Reply: n

Ask: What did the test return for NC(=O)NC(=O)c1cccc(NC(=O)CBr)c1 ?
Reply: y

* * *

Provide the reported GI50 of each item.
tested on: K562; assay: NCI tumour cell line growth inhibition, 48 h
Calls of active or inactive are those of the source. Cut-off read from the data, not from the text of the source: active = GI50 up to about 1.1 µM and inactive = higher.

Recorded results for 3 compounds are shown here.
COC(=O)CC[C@]12C[C@]13CC[C@]1(C)C4C(C)C[C@]5(CC(C)C(=O)O5)OC4CC1(C)C3CCC2C(C)(C)O (stereo partly specified) :: 49.9 µM (inactive)
Cc1c(-c2nnc(-c3ccc(Cl)cc3)o2)c(=O)n(-c2ccccc2)n1C :: > 100 µM (inactive)
C[n+]1c2ccccc2n2c3ccccc3c(NCCCn3ccnc3)c(C#N)c21 :: 2.39 µM (inactive)

Please give GI50 for each item listed below.
1. COC(=O)[C@H](CCSC)NC(=O)c1ccc(CNC(=O)/C(C)=C/c2ccccc2)cc1
2. O=C(Nn1cc(F)c(=O)[nH]c1=O)C12CC3CC(CC(C3)C1)C2
3. COc1ccc(C2S/C(=C\c3cccc(O)c3)C(=O)N2NC(=O)Cc2ccccc2)cc1 (stereo unspecified)

Reply:
["> 100 µM (inactive)", "14.6 µM (inactive)", "> 100 µM (inactive)"]

* * *

test system: HL-60; experiment: NCI tumour cell line growth inhibition, 48 h
The source made the active and inactive calls. Cut-off read from the data, not from the text of the source: active = GI50 up to about 1.1 µM and inactive = higher.
In this exercise, the only acceptable responses are true (1) (active), false (0) (inactive)

O=C(O)c1cccc(SSc2cccc(C(=O)O)c2)c1 :: false (0)

Ask: Dear colleague, could you share the recorded outcome for CC[C@@]1(O)C(=O)OCc2c1cc1n(c2=O)Cc2cc3c(N)cccc3nc2-1 when you have a moment?
Reply: true (1)

* * *

tested on: 786-0; test: NCI tumour cell line growth inhibition, 48 h
The source made the active and inactive calls. Rule as the data show it: active = GI50 up to about 1.1 µM and inactive = higher.
Choose one outcome from this list and give only that: class 1 for active, class 0 for inactive

Take a look at these entries with their results.
COC1=CC(=O)N(C(=O)C2CSC(C(CO)NC(=O)c3csc(/C=N/O)n3)=N2)C1 (centres undefined) :: class 0
CCOC(=O)/C(C#N)=C(/NS(=O)(=O)c1cc(C)c(Cl)cc1[S-])[n+]1ccc(N(C)C)cc1 :: class 0
CO/C(=N\N=C\c1ccc(C(F)(F)F)cc1)c1ccncc1 :: class 0

Ask: Query: recorded result category for CC1(C)C2CCC13C(=O)C1OC3(C2)C2C(=O)N(c3ccccc3)C(=O)C12 (centres undefined) in this test
Reply: class 0

Ask: Answer briefly: the call reported for Nc1ncnc2c1ccn2CC=C(CO)CO in this assay.
Reply: class 0

Ask: # fetch the recorded call for CCCCCCCCCCCCCCCC(=O)OCC1OC(n2cc(F)c(=O)[nH]c2=O)C(N)C(O)C1O (centres undefined) here
Reply: class 0

Ask: I'd appreciate the recorded outcome for COc1ccc(NCn2nc(CCCCCCCCc3nn(CNc4ccc(OC)cc4)c(=S)o3)oc2=S)cc1 from this test.
Reply: class 0

Ask: Give the logged outcome of this assay for the following compound: CC(=O)OC1COC(n2c(-c3ccc(Cl)cc3)cc(-c3ccccc3)c(C#N)c2=S)C(OC(C)=O)C1OC(C)=O (centres undefined)
Reply: class 0

Ask: So what was the verdict on COc1oc(C(=O)NC2CCCCC2)c(-c2ccc(Cl)cc2)c1S(=O)(=O)c1ccccc1 in this test?
Reply: class 0

Ask: Hello, I am checking results. What call was entered for C/C(C=O)=N\Nc1cc(C)c2ccccc2n1 ?
Reply: class 0

Ask: Hey, what did the test say about CC[C@@]1(O)C(=O)OCc2c1cc1n(c2=O)Cc2cc3c(N)cccc3nc2-1 [9-AMINOCAMPTOTHECIN] ?
Reply: class 1

Ask: What call does the record list for NCCCNCc1c2ccccc2c(CNCCCN)c2ccccc12 ?
Reply: class 0
